- assay_procedure: Clearance in C57BL/6 mouse at 1 mg/kg, iv
- Type: ADME, organism-based
- condition_set: in vivo
reported_endpoint: clearance (mL/min/kg)
Quick reminder: number only, in mL/min/kg, skip the unit.

Examples with their reported clearance follow.
What measured clearance goes with C[C@@H](Oc1ccc2c(c1)CN(C1CCC(=O)NC1=O)C2=O)[C@H]1CCCCN1C (some centres undefined) ?
28

What do you get for CCN1CCCC[C@@H]1COc1ccc2c(c1)CN(C1CCC(=O)NC1=O)C2=O (some centres undefined) ?
22

What do you get for CCN1C[C@H](Oc2ccc3c(c2)CN(C2CCC(=O)NC2=O)C3=O)CC[C@@H]1C (some centres undefined) ?
29

Now for another entry.
What measured clearance goes with CCN1C[C@H](C)C[C@@H](Oc2ccc3c(c2)CN(C2CCC(=O)NC2=O)C3=O)C1 (stereo in doubt; 10) ?
29

====

- tested_on: Protein cereblon/Protein Wiz (Homo sapiens, UniProt Q96SW2+O95785)
- assay_procedure: Molecular glue activity at CRBN/HiBiT-tagged WIZ (unknown origin) expressed in HEK293T cells assessed as induction of WIZ degradation incubated for 18 hrs by Nano-Glo HiBiT-Lytic reagent based luminescence plate reader analysis
- Format: cell-based
- Sequence (Q96SW2 whole entry): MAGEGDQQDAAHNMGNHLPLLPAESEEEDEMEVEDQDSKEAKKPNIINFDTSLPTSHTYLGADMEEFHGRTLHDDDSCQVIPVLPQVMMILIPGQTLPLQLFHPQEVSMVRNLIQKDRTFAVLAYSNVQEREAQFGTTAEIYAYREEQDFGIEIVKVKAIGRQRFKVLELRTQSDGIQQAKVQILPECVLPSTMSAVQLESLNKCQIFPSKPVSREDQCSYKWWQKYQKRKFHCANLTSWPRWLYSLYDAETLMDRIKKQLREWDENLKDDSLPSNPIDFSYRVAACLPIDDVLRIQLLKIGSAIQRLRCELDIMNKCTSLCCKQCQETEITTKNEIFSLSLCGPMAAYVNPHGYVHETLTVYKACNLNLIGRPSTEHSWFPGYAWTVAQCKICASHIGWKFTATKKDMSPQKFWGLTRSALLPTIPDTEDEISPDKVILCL
- Sequence (O95785 whole entry): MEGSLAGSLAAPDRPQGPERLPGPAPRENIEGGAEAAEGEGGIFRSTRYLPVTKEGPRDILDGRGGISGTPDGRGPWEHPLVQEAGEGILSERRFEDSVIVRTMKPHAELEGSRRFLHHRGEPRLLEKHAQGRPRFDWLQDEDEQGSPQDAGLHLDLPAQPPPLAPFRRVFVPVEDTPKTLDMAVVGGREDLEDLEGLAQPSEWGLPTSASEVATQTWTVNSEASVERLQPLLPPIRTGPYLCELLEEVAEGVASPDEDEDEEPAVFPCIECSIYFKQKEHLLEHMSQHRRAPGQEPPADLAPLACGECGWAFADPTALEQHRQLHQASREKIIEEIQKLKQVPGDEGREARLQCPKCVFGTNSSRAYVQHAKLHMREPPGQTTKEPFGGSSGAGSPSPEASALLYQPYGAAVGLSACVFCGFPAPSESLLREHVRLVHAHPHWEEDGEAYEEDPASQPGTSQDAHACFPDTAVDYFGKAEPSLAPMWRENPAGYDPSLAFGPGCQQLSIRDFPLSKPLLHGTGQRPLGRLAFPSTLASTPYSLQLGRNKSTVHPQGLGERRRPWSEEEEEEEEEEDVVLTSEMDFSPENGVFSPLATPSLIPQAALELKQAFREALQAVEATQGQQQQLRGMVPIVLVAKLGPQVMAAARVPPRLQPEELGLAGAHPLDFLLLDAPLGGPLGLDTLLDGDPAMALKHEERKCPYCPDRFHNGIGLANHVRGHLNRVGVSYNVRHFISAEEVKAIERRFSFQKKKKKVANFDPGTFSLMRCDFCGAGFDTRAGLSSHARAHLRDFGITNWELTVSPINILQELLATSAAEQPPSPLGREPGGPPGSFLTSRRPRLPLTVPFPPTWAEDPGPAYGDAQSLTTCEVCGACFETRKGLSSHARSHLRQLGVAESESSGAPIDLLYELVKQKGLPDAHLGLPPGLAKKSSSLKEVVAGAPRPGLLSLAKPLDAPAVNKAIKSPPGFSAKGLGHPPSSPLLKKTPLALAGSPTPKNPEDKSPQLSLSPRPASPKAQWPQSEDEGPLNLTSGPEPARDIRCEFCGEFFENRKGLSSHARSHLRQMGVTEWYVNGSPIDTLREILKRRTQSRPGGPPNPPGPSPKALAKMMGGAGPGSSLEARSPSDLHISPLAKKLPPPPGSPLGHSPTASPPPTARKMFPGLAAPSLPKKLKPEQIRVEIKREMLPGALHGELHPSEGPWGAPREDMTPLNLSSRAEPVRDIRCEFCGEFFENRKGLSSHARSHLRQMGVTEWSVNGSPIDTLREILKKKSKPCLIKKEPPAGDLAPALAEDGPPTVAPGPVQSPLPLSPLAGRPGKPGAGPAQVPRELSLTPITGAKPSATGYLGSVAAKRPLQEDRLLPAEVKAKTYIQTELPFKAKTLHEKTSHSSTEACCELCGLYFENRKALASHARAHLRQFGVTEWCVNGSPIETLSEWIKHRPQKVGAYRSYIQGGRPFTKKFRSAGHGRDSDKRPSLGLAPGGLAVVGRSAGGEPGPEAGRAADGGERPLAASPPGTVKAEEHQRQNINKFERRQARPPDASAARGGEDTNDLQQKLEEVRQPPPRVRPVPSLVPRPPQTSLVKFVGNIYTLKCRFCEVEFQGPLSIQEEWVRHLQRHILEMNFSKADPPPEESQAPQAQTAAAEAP
reported_endpoint: DC50 (nM)
Quick reminder: number only, in nM, skip the unit.

What measured DC50 goes with CCN1C[C@H](Oc2ccc3c(c2)CN(C2CCC(=O)NC2=O)C3=O)CC[C@@H]1C (some centres undefined) ?
3

Now for another entry.
What measured DC50 goes with CCN1CCC2(CC2)[C@@H](Oc2ccc3c(c2)CN(C2CCC(=O)NC2=O)C3=O)C1 (some centres undefined) ?
8

====

Quick reference for Activity among some molecules
- tested_on: Protein cereblon/Eukaryotic peptide chain release factor GTP-binding subunit ERF3A (Homo sapiens, UniProt Q96SW2+P15170)
- assay_procedure: Molecular glue activity at CRBN/HiBiT-tagged GSPT1 (unknown origin) expressed in human GripTite 293 MSR cells assessed as induction of GSPT1 degradation incubated for 20 hrs by Nano-Glo HiBiT-Lytic reagent based luminescence plate reader analysis relative to control
- Format: cell-based
- Set-up: concentration or dose not given beside the values
- Sequence (P15170 whole entry, looked up, one chain of several): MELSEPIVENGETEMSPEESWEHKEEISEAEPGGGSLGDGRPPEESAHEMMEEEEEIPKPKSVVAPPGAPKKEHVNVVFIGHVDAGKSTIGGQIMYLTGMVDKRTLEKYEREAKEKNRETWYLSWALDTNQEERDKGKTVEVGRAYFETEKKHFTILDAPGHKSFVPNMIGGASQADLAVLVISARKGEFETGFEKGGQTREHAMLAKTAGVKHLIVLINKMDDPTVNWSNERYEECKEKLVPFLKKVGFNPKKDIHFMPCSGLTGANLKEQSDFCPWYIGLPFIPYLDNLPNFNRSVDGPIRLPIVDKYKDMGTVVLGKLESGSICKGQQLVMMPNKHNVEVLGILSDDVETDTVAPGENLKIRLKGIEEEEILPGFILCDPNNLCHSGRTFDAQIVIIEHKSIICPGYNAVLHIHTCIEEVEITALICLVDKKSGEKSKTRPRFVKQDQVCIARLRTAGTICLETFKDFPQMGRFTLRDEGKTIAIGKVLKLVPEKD

Examples with their reported Activity follow.
What measured Activity goes with CCN1C[C@H](C)C[C@@H](Oc2ccc3c(c2)CN(C2CCC(=O)NC2=O)C3=O)C1 (mixture of isomers) ?
< 10%

What do you get for CCN1CCC2(CC2)[C@@H](Oc2ccc3c(c2)CN(C2CCC(=O)NC2=O)C3=O)C1 (some centres undefined) ?
< 10%

What do you get for C[C@@H](Oc1ccc2c(c1)CN(C1CCC(=O)NC1=O)C2=O)[C@H]1CCCCN1C (some centres undefined) ?
< 11%

Now for another entry.
What measured Activity goes with CCN1C[C@@H](C)C[C@@H](Oc2ccc3c(c2)CN(C2CCC(=O)NC2=O)C3=O)C1 (mixture of isomers) ?
< 10%

====

Quick reference for Activity among some compounds
- tested_on: Protein cereblon/Protein Wiz (Homo sapiens, UniProt Q96SW2+O95785)
- assay_procedure: Molecular glue activity at CRBN/HiBiT-tagged WIZ (unknown origin) expressed in HEK293T cells assessed as induction of WIZ degradation incubated for 18 hrs by Nano-Glo HiBiT-Lytic reagent based luminescence plate reader analysis relative to control
- Type: cell-based
- Set-up: concentration or dose not given beside the values
- Sequence (O95785 whole entry, looked up): as the sequence (O95785 whole entry) above
- Sequence (Q96SW2 whole entry, looked up): as the sequence (Q96SW2 whole entry) above
Quick reminder: number only, in %, skip the unit.

What measured Activity goes with CCN1C[C@H](C)C[C@@H](Oc2ccc3c(c2)CN(C2CCC(=O)NC2=O)C3=O)C1 (mixture of isomers) ?
78

What do you get for CCN1CCC[C@@H](Oc2ccc3c(c2)CN(C2CCC(=O)NC2=O)C3=O)C1 (stereo not given in full) ?
77

What do you get for CCN1CCCC[C@@H]1COc1ccc2c(c1)CN(C1CCC(=O)NC1=O)C2=O (stereo not given in full) ?
82

====

- tested_on: Protein cereblon/Eukaryotic peptide chain release factor GTP-binding subunit ERF3A (Homo sapiens, UniProt Q96SW2+P15170)
- assay_procedure: Molecular glue activity at CRBN/HiBiT-tagged GSPT1 (unknown origin) expressed in human GripTite 293 MSR cells assessed as induction of GSPT1 degradation incubated for 20 hrs by Nano-Glo HiBiT-Lytic reagent based luminescence plate reader analysis
- Format: cell-based
- Sequence (P15170 whole entry, one chain of several): as the sequence (P15170 whole entry, looked up, one chain of several) above
reported_endpoint: DC50

What measured DC50 goes with CCN1C[C@@H](C)C[C@@H](Oc2ccc3c(c2)CN(C2CCC(=O)NC2=O)C3=O)C1 (mixture of isomers) ?
> 50 µM

====

Quick reference for Cmax among some compounds
- assay_procedure: Cmax in C57BL/6 mouse at 3 mg/kg, po
- Assay type: ADME, organism-based
- condition_set: in vivo
Quick reminder: number only, in nM, skip the unit.

Examples with their reported Cmax follow.
What measured Cmax goes with CCN1C[C@H](Oc2ccc3c(c2)CN(C2CCC(=O)NC2=O)C3=O)CC[C@@H]1C (some centres undefined) ?
118

What do you get for C[C@@H](Oc1ccc2c(c1)CN(C1CCC(=O)NC1=O)C2=O)[C@H]1CCCCN1C (some centres undefined) ?
24

What do you get for CCN1CCCC[C@@H]1COc1ccc2c(c1)CN(C1CCC(=O)NC1=O)C2=O (some centres undefined) ?
157

Now for another entry.
What measured Cmax goes with CCN1C[C@H](C)C[C@@H](Oc2ccc3c(c2)CN(C2CCC(=O)NC2=O)C3=O)C1 (stereo in doubt; 10) ?
224

====

Quick reference for half-life among some compounds
- assay_procedure: Half-life in C57BL/6 mouse at 1 mg/kg, iv
- Assay type: ADME, organism-based
- condition_set: in vivo
Quick reminder: number only, in h, skip the unit.

Examples with their reported half-life follow.
What measured half-life goes with CCN1C[C@H](C)C[C@@H](Oc2ccc3c(c2)CN(C2CCC(=O)NC2=O)C3=O)C1 (stereo in doubt; 10) ?
2.2

What do you get for C[C@@H](Oc1ccc2c(c1)CN(C1CCC(=O)NC1=O)C2=O)[C@H]1CCCCN1C (some centres undefined) ?
1.9

What do you get for CCN1C[C@H](Oc2ccc3c(c2)CN(C2CCC(=O)NC2=O)C3=O)CC[C@@H]1C (some centres undefined) ?
3.2

New cases:
What measured half-life goes with CCN1CCCC[C@@H]1COc1ccc2c(c1)CN(C1CCC(=O)NC1=O)C2=O (some centres undefined) ?
1.7

====

- assay_procedure: Protein binding in rat plasma
- Type: ADME, cell-free
- condition_set: read-out: PPB (converted)
reported_endpoint: fraction unbound
Note: the reply should be a number with no unit written.

What measured fraction unbound goes with C[C@@H](Oc1ccc2c(c1)CN(C1CCC(=O)NC1=O)C2=O)[C@H]1CCCCN1C (some centres undefined) ?
0.58

New cases:
What measured fraction unbound goes with CCN1C[C@H](Oc2ccc3c(c2)CN(C2CCC(=O)NC2=O)C3=O)CC[C@@H]1C (some centres undefined) ?
0.71

====

- assay_procedure: Protein binding in human plasma
- Assay type: ADME, cell-free
- condition_set: read-out: PPB (converted)
Quick reference for fraction unbound among some molecules
Note: the reply should be a number with no unit written.

What measured fraction unbound goes with C[C@@H](Oc1ccc2c(c1)CN(C1CCC(=O)NC1=O)C2=O)[C@H]1CCCCN1C (some centres undefined) ?
0.69

What do you get for CCN1C[C@H](C)C[C@@H](Oc2ccc3c(c2)CN(C2CCC(=O)NC2=O)C3=O)C1 (stereo in doubt; 10) ?
0.76

New cases:
What measured fraction unbound goes with CCN1C[C@H](Oc2ccc3c(c2)CN(C2CCC(=O)NC2=O)C3=O)CC[C@@H]1C (some centres undefined) ?
0.72

====

- assay_procedure: Intrinsic clearance in rat liver microsomes
- Type: ADME, Microsome
- condition_set: read-out: CLH
reported_endpoint: microsomal CLint

Examples with their reported microsomal CLint follow.
What measured microsomal CLint goes with CCN1C[C@H](C)C[C@@H](Oc2ccc3c(c2)CN(C2CCC(=O)NC2=O)C3=O)C1 (stereo in doubt; 10) ?
< 10 µL/min/mg

What do you get for C[C@@H](Oc1ccc2c(c1)CN(C1CCC(=O)NC1=O)C2=O)[C@H]1CCCCN1C (some centres undefined) ?
< 25 µL/min/mg

What do you get for CCN1CCCC[C@@H]1COc1ccc2c(c1)CN(C1CCC(=O)NC1=O)C2=O (some centres undefined) ?
< 25 µL/min/mg

New cases:
What measured microsomal CLint goes with CCN1C[C@H](Oc2ccc3c(c2)CN(C2CCC(=O)NC2=O)C3=O)CC[C@@H]1C (some centres undefined) ?
< 25 µL/min/mg

====

- assay_procedure: Tmax in C57BL/6 mouse at 3 mg/kg, po or 1 mg/kg, iv
- Assay type: ADME, organism-based
- condition_set: in vivo
reported_endpoint: Tmax (h)
Quick reminder: number only, in h, skip the unit.

What measured Tmax goes with CCN1C[C@H](Oc2ccc3c(c2)CN(C2CCC(=O)NC2=O)C3=O)CC[C@@H]1C (some centres undefined) ?
1

New cases:
What measured Tmax goes with C[C@@H](Oc1ccc2c(c1)CN(C1CCC(=O)NC1=O)C2=O)[C@H]1CCCCN1C (some centres undefined) ?
3

What do you get for CCN1CCCC[C@@H]1COc1ccc2c(c1)CN(C1CCC(=O)NC1=O)C2=O (some centres undefined) ?
2.3

What do you get for CCN1C[C@H](C)C[C@@H](Oc2ccc3c(c2)CN(C2CCC(=O)NC2=O)C3=O)C1 (stereo in doubt; 10) ?
1.7

Hey, just so you know, these numbers are from ChEMBL document CHEMBL6074667.
